Taken from ChEMBL document CHEMBL4725478.

organism: Homo sapiens; assay: Selectivity ratio of IC50 for full length C-terminal His/FLAG-tagged human HDAC1 expressed in baculovirus expression system to IC50 full length N-terminal GST-tagged human HDAC6 expressed in baculovirus expression system
MEASUREMENT_NAME: Ratio IC50
Numbers only.

Some solved entries appear below for comparison.
{"columns": ["CHEMICAL_STRUCTURE", "Ratio IC50"],
 "data": [
  ["O=C(NO)c1ccc(COC(=O)N2CCC3(CC2)CN(Cc2ccccc2)c2ccccc23)cc1", 140],
  ["O=C(NO)c1ccc(CNC(=O)N2CCC3(CC2)CN(Cc2ccccc2)c2ccccc23)cc1", 33],
  ["CC(C)(C)OC(=O)N1CCC2(CC1)CN(Cc1ccc(C(=O)NO)cc1)c1ccccc12", 95],
  ["O=C(NO)c1ccc(CC(=O)N2CCC3(CC2)CN(Cc2ccccc2)c2ccccc23)cc1", 45],
  ["O=C(NO)c1ccc(CN2CCC3(CC2)CN(C(=O)c2ccccc2)c2c(-c4ccccc4)cccc23)cc1", 10]
]}

For each of the compounds below, note its Ratio IC50.
1. CN1CC2(CCN(Cc3ccc(C(=O)NO)cc3)CC2)c2ccccc21
2. O=C(NO)c1ccc(CN2CCC3(CC2)CN(C(=O)c2ccccc2)c2ccccc23)cc1
3. O=C(NO)c1ccc(CN2CCC3(CC2)CN(Cc2ccccc2)c2ccccc23)cc1

Response:
[85, 65, 12]
